Molecular target: Na^+ -dependent bile acid transport system (Oryctolagus cuniculus, UniProt Q28727)
Construct: Brush border membrane vesicles from the intestinal cells of the small intestine were prepared by the so-called Mg^2+ precipitation method; from tissue; host or cells: terminal ileum (terminal 7/10 of small intestine) of male New Zealand rabbits, brush border membrane vesicles
Sequence (Q28727 1-347): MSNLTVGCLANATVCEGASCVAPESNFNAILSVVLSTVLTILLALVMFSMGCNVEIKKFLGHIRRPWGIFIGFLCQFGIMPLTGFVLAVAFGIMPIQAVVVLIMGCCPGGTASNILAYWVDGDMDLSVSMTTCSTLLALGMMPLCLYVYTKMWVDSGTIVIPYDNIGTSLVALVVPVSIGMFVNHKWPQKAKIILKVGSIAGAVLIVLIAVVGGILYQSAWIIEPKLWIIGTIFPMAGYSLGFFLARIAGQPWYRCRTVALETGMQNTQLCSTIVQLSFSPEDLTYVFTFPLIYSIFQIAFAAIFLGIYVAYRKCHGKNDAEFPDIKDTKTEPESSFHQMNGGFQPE
Test: inhibition of Na+-dependent [3H]-taurocholate absorption in brush border membrane vesicles of rabbit ileum (membrane filtration technique)
Format: biochemical
Conditions: quotient of IC50 of the standard taurochenodeoxycholate (TCDC) and of the substance; 50 μM taurocholate, customarily 1 minute, pH 7.4

SMILES INPUT: C[C@H](CCC(=O)O)[C@H]1CC[C@H]2[C@@H]3[C@H](O)C[C@@H]4C[C@@H](OCCCCCNC(=O)[C@]5(C)C[C@](C)(C(=O)NCCCCCO[C@H]6CC[C@@]7(C)[C@@H](C6)C[C@@H](O)[C@@H]6[C@@H]7C[C@H](O)[C@]7(C)[C@@H]([C@H](C)CCC(=O)O)CC[C@@H]67)C[C@](C)(C(=O)NCCCCCO[C@H]6CC[C@@]7(C)[C@@H](C6)C[C@@H](O)[C@@H]6[C@@H]7C[C@H](O)[C@]7(C)[C@@H]([C@H](C)CCC(=O)O)CC[C@@H]67)C5)CC[C@]4(C)[C@H]3C[C@H](O)[C@]12C
IC50 (TCDC) / IC50 (Substance): 1.26

###

target: Na^+ -dependent bile acid transport system (Oryctolagus cuniculus); construct: Brush border membrane vesicles from the intestinal cells of the small intestine were prepared by the so-called Mg^2+ precipitation method; from tissue; host or cells: terminal ileum (terminal 7/10 of small intestine) of male New Zealand rabbits, brush border membrane vesicles; test: inhibition of Na+-dependent [3H]-taurocholate absorption in brush border membrane vesicles of rabbit ileum (membrane filtration technique); type: biochemical; conditions: quotient of IC50 of the standard taurochenodeoxycholate (TCDC) and of the substance; 50 μM taurocholate, customarily 1 minute, pH 7.4
IC50 (TCDC) / IC50 (Substance) values, listed per item
MEASURE: IC50 (TCDC) / IC50 (Substance)

COMPOUND: C[C@H](CCC(=O)O)[C@H]1CC[C@H]2[C@@H]3[C@H](O)C[C@@H]4C[C@H](CCNC(=O)c5cc(C(=O)NCC[C@@H]6CC[C@@]7(C)[C@@H](C6)C[C@@H](O)[C@@H]6[C@@H]7C[C@H](O)[C@]7(C)[C@@H]([C@H](C)CCC(=O)O)CC[C@@H]67)cc(C(=O)NCC[C@@H]6CC[C@@]7(C)[C@@H](C6)C[C@@H](O)[C@@H]6[C@@H]7C[C@H](O)[C@]7(C)[C@@H]([C@H](C)CCC(=O)O)CC[C@@H]67)c5)CC[C@]4(C)[C@H]3C[C@H](O)[C@]12C [Example 18]
MEASUREMENT TARGET: Na^+ -dependent bile acid transport system (Oryctolagus cuniculus)
RECORDED RESULT: 0.85

COMPOUND: C[C@H](CCC(=O)O)[C@H]1CC[C@H]2[C@@H]3[C@H](O)C[C@@H]4C[C@@H](OCCNC(=O)CCC(CCC(=O)NCCO[C@H]5CC[C@@]6(C)[C@@H](C5)C[C@@H](O)[C@@H]5[C@@H]6C[C@H](O)[C@]6(C)[C@@H]([C@H](C)CCC(=O)O)CC[C@@H]56)(CCC(=O)NCCO[C@H]5CC[C@@]6(C)[C@@H](C5)C[C@@H](O)[C@@H]5[C@@H]6C[C@H](O)[C@]6(C)[C@@H]([C@H](C)CCC(=O)O)CC[C@@H]56)[N+](=O)[O-])CC[C@]4(C)[C@H]3C[C@H](O)[C@]12C [Example 7]
MEASUREMENT TARGET: Na^+ -dependent bile acid transport system (Oryctolagus cuniculus)
RECORDED RESULT: 0.29

COMPOUND: CC(CCC(=O)O)C1CCC2C3C(O)CC4CC(OCCNC(=O)C5C(C(=O)NCCOC6CCC7(C)C(C6)CC(O)C6C7CC(O)C7(C)C(C(C)CCC(=O)O)CCC67)C(c6ccccc6)C5C(=O)NCCOC5CCC6(C)C(C5)CC(O)C5C6CC(O)C6(C)C(C(C)CCC(=O)O)CCC56)CCC4(C)C3CC(O)C12C (centres unmarked) [Example 45]
MEASUREMENT TARGET: Na^+ -dependent bile acid transport system (Oryctolagus cuniculus)
RECORDED RESULT: 0.32

COMPOUND: C[C@H](CCC(=O)O)[C@H]1CC[C@H]2[C@@H]3[C@H](O)C[C@@H]4C[C@@H](OCCCCCNC(=O)c5cc(C(=O)NCCCCCO[C@H]6CC[C@@]7(C)[C@@H](C6)C[C@@H](O)[C@@H]6[C@@H]7C[C@H](O)[C@]7(C)[C@@H]([C@H](C)CCC(=O)O)CC[C@@H]67)cc(C(=O)NCCCCCO[C@H]6CC[C@@]7(C)[C@@H](C6)C[C@@H](O)[C@@H]6[C@@H]7C[C@H](O)[C@]7(C)[C@@H]([C@H](C)CCC(=O)O)CC[C@@H]67)c5)CC[C@]4(C)[C@H]3C[C@H](O)[C@]12C [Example 20]
MEASUREMENT TARGET: Na^+ -dependent bile acid transport system (Oryctolagus cuniculus)
RECORDED RESULT: 0.43

COMPOUND: C[C@H](CCC(=O)O)[C@H]1CC[C@H]2[C@@H]3[C@H](O)C[C@@H]4C[C@@H](OCCNC(=O)CCOCC(C)(COCCC(=O)NCCO[C@H]5CC[C@@]6(C)[C@@H](C5)C[C@@H](O)[C@@H]5[C@@H]6C[C@H](O)[C@]6(C)[C@@H]([C@H](C)CCC(=O)O)CC[C@@H]56)COCCC(=O)NCCO[C@H]5CC[C@@]6(C)[C@@H](C5)C[C@@H](O)[C@@H]5[C@@H]6C[C@H](O)[C@]6(C)[C@@H]([C@H](C)CCC(=O)O)CC[C@@H]56)CC[C@]4(C)[C@H]3C[C@H](O)[C@]12C [Example 10]
MEASUREMENT TARGET: Na^+ -dependent bile acid transport system (Oryctolagus cuniculus)
RECORDED RESULT: 0.24
